The reported numbers originate from paper PMC11571207.

System: human red blood cells
assayRemarks: Hemolysis assay, minimum hemolytic concentration
experimentalContext: 2.5% human red blood cells (final) in 10 mM phosphate, 150 mM NaCl, pH 7.4, 25 °C, 4 h; visual inspection
No end group written: not given here.
The following sequences are listed with their measured Haemolysis on hRBC, MHC values.

VDKPPYLPRPRPPRRIYNR [sr11Cterm-Onc] (VDKPPYLPRPRPPRRIYNR-NH2; also: residues 9-19 stereorandomized (1:1 L/D mixture)) : >1000 µg/mL

Return reported Haemolysis on hRBC, MHC; argument: VDKPPYLPRPRPPRRIYNR [sr12Cterm-Onc] (VDKPPYLPRPRPPRRIYNR-NH2; also: residues 8-19 stereorandomized (1:1 L/D mixture))
>1000 µg/mL

Follow-up entry: VDKPPYLPRPRPPRRIYNR [sr6Cterm-Onc] (VDKPPYLPRPRPPRRIYNR-NH2; also: residues 14-19 stereorandomized (1:1 L/D mixture))
>1000 µg/mL

Follow-up entry: VDKPPYLPRPRPPRRIYNR [sr10Cterm-Onc] (VDKPPYLPRPRPPRRIYNR-NH2; also: residues 10-19 stereorandomized (1:1 L/D mixture))
>1000 µg/mL

Follow-up entry: VDKPPYLPRPRPPRRIYNR [srP45-Onc] (VDKPPYLPRPRPPRRIYNR-NH2; also: residues 4-5 (Pro-Pro) stereorandomized (1:1 L/D mixture))
>1000 µg/mL

---

The following substances are listed with their measured MIC P. aeruginosa PA14 4.18 (pmrB), full MHB values.
System: P. aeruginosa PA14 4.18 (pmrB)
experimentalContext: polymyxin B resistant strain; full MHB pH 7.4; 16–20 h at 37 °C
No end group written: not given here.

In the examples that follow, each entry is paired with its recorded MIC P. aeruginosa PA14 4.18 (pmrB), full MHB.
VDKPPYLPRPRPPRRIYNR-NH2 [L-Onc, reference compound] : > 64 µg/mL
VDKPPYLPRPRPPRRIYNR [sr-Onc] (VDKPPYLPRPRPPRRIYNR-NH2; also: all 19 residues stereorandomized (1:1 L/D mixture)) : > 64 µg/mL

Let us move to another entry and its MIC P. aeruginosa PA14 4.18 (pmrB), full MHB.
Return reported MIC P. aeruginosa PA14 4.18 (pmrB), full MHB; argument: VDKPPYLPRPRPPRRIYNR [sr14Nterm-Onc] (VDKPPYLPRPRPPRRIYNR-NH2; also: residues 1-14 stereorandomized (1:1 L/D mixture))
> 64 µg/mL
